- EXPERIMENTAL_SYSTEM: EGFR L858R/T790M/C797S (BaF3-LTC cells) (Homo sapiens, UniProt P00533, C797S/L858R/T790M)
- Construct: expressed in transfected cells; host or cells: BaF3
- Sequence (P00533 25-1210 T790M/C797S/L858R): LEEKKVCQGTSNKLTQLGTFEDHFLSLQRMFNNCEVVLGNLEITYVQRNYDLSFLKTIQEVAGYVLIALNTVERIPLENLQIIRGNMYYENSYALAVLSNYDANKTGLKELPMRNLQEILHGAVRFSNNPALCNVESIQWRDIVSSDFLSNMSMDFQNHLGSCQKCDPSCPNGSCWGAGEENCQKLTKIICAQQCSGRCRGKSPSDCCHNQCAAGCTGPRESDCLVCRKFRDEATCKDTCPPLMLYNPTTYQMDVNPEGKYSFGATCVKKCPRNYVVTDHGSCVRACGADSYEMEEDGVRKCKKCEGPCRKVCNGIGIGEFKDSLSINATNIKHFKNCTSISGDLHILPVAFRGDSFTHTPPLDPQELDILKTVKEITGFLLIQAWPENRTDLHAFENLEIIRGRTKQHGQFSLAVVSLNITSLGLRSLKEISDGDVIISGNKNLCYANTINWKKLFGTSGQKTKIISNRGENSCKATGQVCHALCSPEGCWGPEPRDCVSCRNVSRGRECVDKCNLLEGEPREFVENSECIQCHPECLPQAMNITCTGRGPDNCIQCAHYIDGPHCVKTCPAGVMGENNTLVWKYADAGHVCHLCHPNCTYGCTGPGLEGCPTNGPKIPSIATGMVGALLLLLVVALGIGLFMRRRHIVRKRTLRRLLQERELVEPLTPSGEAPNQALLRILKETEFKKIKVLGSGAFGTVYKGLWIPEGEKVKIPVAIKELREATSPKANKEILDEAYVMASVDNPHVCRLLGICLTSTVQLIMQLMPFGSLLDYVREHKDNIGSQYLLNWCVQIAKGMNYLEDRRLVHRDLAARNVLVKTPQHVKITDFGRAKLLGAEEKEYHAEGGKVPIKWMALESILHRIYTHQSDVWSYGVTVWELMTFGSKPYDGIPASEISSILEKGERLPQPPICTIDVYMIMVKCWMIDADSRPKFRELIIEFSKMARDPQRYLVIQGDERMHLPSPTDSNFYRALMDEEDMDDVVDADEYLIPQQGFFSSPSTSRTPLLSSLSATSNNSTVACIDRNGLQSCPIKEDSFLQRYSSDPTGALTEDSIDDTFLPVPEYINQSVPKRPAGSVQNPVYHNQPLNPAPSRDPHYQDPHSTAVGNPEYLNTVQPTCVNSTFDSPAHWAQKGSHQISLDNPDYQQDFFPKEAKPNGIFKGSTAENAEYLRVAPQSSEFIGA
- TEST_PROTOCOL: EGFR degradation HTRF assay, BaF3-LTC cells
- Assay type: cell-based
- TEST_PARAMETERS: BaF3-LTC cells; maximum percentage of inhibition (degradation); read-out: Dmax (%) BaF3-LTC
- Protocol: BaF3 WT(wild type), BaF3-LTC(L858R/T790M/C797S) and BaF3-DTC(Del19/T790M/C797S) cells are treated with compounds diluted in 0.2% DMSO cell culture medium and incubate for 16h, 37° C., 5% CO2, H1975-#36, H1975-#28, H1975-#23 and HCC827 cells are treated with compounds diluted in 0.2% DMSO cell culture medium on day 2, incubate for 16h, 37° C., 5% CO2.the final concentriation of compounds in all assay is start with 10 uM, 5-fold dilution, total 8 doses were included. […]
OUTCOME_MEASURE: Dmax (%)
Report as a plain number; the unit % is understood.

Exam item: Any idea what Dmax was measured for CCc1cc(Nc2ncc(Br)c(Nc3ccc4nc(C)ccc4c3P(C)(C)=O)n2)c(OC)cc1N1CCC(N2CCN(C(=O)CC3CN(c4cc(F)c([C@H]5CCC(=O)NC5=O)c(F)c4)C3)CC2)CC1 (single isomer, unassigned) ?
Marked response: 97.7

Exam item: Looking for the measured Dmax of CCOc1cc(N2CCC(N3CCN(CCc4cc5oc(=O)n(C6CCC(=O)NC6=O)c5cc4F)CC3)CC2)c(CC)cc1Nc1ncc(Br)c(Nc2ccc3nc(CC)ccc3c2P(C)(C)=O)n1 (stereo not shown) , can you help?
Marked response: 95.5

Exam item: Find the recorded Dmax belonging to CCOc1cc(N2CCC(N3CCN(CCc4cc(F)c([C@H]5CCC(=O)NC5=O)c(F)c4)CC3)CC2)c(CC)cc1Nc1nccc(Nc2cc(F)c3nc(CC)ccc3c2P(C)(C)=O)n1 and report it.
Marked response: 75

Exam item: Please report the recorded Dmax for CCc1cc(Nc2ncc(Br)c(Nc3ccc4c(c3P(C)(C)=O)OCCO4)n2)c(OC)cc1N1CCC(N2CCN(C(=O)[C@@H]3CCN(c4cc(F)c([C@H]5CCC(=O)NC5=O)c(F)c4)C3)CC2)CC1 .
Marked response: 96.6

Exam item: Please report the recorded Dmax for CCc1cc(Nc2ncc(Br)c(Nc3cc(F)c4nc(C)ccc4c3P(C)(C)=O)n2)c(OC)cc1N1CCC(N2CCN(CCc3ccc4c(c3)oc(=O)n4C3CCC(=O)NC3=O)CC2)CC1 (stereo not shown) .
Marked response: 96.3

Exam item: So what does the record say about Dmax for CCc1ccc2c(P(C)(C)=O)c(Nc3nc(Nc4cc(CC)c(N5CCC(N6CCN(C(=O)[C@@H]7CCN(c8cc(F)c([C@H]9CCC(=O)NC9=O)c(F)c8)C7)CC6)CC5)cc4OC)ncc3Br)cc(F)c2n1 ?
Marked response: 97.2

Exam item: Requested field: Dmax. Item: CCOc1cc(N2CCC(N3CCN(CCc4ccc(F)c5c4oc(=O)n5C4CCC(=O)NC4=O)CC3)CC2)c(CC)cc1Nc1ncc(Br)c(Nc2cc(F)c3nc(CC)ccc3c2P(C)(C)=O)n1 (stereo not shown)
Marked response: 83.7

Exam item: Fill in the blank: the reported Dmax of CCc1cc(Nc2ncc(Br)c(Nc3ccc4c(=O)n(C5CC5)ncc4c3P(C)(C)=O)n2)c(OC)cc1N1CCC(N2CCN(CCC3CCN(c4cc(F)c([C@H]5CCC(=O)NC5=O)c(F)c4)CC3)CC2)CC1 is ____.
Marked response: 96.5

Exam item: I am curious: what Dmax value has been reported for CCOc1cc(N2CCC(N3CCN(CCCc4cc(F)c([C@H]5CCC(=O)NC5=O)c(F)c4)CC3)CC2)c(CC)cc1Nc1ncc(Br)c(Nc2cc(F)c3nc(CC)ccc3c2P(C)(C)=O)n1 ?
Marked response: 92

Exam item: Item CCc1ccc2c(P(C)(C)=O)c(Nc3nc(Nc4cc(CC)c(N5CCC(N6CCN(C(=O)C78CCC(Nc9cc(F)c([C@H]%10CCC(=O)NC%10=O)c(F)c9)(CC7)C8)CC6)CC5)cc4OC)ncc3Br)ccc2n1 has what recorded Dmax?
Marked response: 95.8

====

- System: EGFR Del19/T790M/C797S (H1975-clone #28)
- TEST_PROTOCOL: EGFR degradation HTRF assay, H1975-clone #28 DTC cells
- Type: cell-based
- TEST_PARAMETERS: H1975 # 28 DTC cells; maximum percentage of inhibition (degradation)
Provide the reported Dmax (%) H1975 # 28 DTC of each item.
# value in %; strip the unit string

Exam item: Looking for the measured Dmax (%) H1975 # 28 DTC of CCOc1cc(N2CCC(N3CCN(C(=O)C4CCN(c5cccc6c5oc(=O)n6C5CCC(=O)NC5=O)CC4)CC3)CC2)c(CC)cc1Nc1ncc(Br)c(Nc2ccc3nc(CC)ccc3c2P(C)(C)=O)n1 (stereo not shown) , can you help?
Marked response: 77.65

Exam item: Recorded Dmax (%) H1975 # 28 DTC of CCc1cc(Nc2ncc(Br)c(Nc3ccc4nc(C)ccc4c3P(C)(C)=O)n2)c(OC2CC2)cc1N1CCC(N2CCN(CCc3ccc4c(c3)oc(=O)n4C3CCC(=O)NC3=O)CC2)CC1 (stereo not shown) , please.
Marked response: 92.3

Exam item: Report Dmax (%) H1975 # 28 DTC for CCc1cc(Nc2ncc(Br)c(Nc3ccc4nc(C#N)ccc4c3P(C)(C)=O)n2)c(OC)cc1N1CCC(N2CCN(C(=O)[C@@H]3CCN(c4cc(F)c([C@H]5CCC(=O)NC5=O)c(F)c4)C3)CC2)CC1 please.
Marked response: 69.95

Exam item: // query Dmax (%) H1975 # 28 DTC value for entry CCc1ccc2c(P(C)(C)=O)c(Nc3nc(Nc4cc(CC)c(N5CCC(N6CCN(CCc7cc(F)cc8c7oc(=O)n8C7CCC(=O)NC7=O)CC6)CC5)cc4OC)ncc3Br)ccc2n1 (stereo not shown)
Marked response: 82.38

Exam item: Recorded Dmax (%) H1975 # 28 DTC for CCc1ccc2c(P(C)(C)=O)c(Nc3nc(Nc4cc(CC)c(N5CCC(N6CCN(C(=O)[C@@H]7CCN(c8cc(F)c([C@H]9CCC(=O)NC9=O)c(F)c8)C7)CC6)CC5)cc4OC(F)(F)F)ncc3Br)ccc2n1 , please?
Marked response: 75.95

Exam item: Quick one: Dmax (%) H1975 # 28 DTC of CCc1cc(Nc2ncc(Br)c(Nc3ccc4nc(C)ccc4c3P(C)(C)=O)n2)c(OC)cc1N1CCC(N2CCN(C3CCN(c4cc(F)c(C5CCC(=O)NC5=O)c(F)c4)CC3)CC2)CC1 (stereo not shown) ?
Marked response: 68.67

Exam item: Dmax (%) H1975 # 28 DTC lookup needed for CCOc1cc(N2CCC(N3CCN(CCc4c(C)ccc5c4n(C)c(=O)n5C4CCC(=O)NC4=O)CC3)CC2)c(CC)cc1Nc1ncc(Br)c(Nc2ccc3nc(CC)ccc3c2P(C)(C)=O)n1 (stereo not shown) , thanks.
Marked response: 75.83

Exam item: Record request: Dmax (%) H1975 # 28 DTC value, item CCc1cc(Nc2ncc(Br)c(Nc3ccc4nc(C)ccc4c3P(C)(C)=O)n2)c(OC)cc1N1CCC(N2CCN(C[C@H]3CCN(c4ccc5c(c4)oc(=O)n5C4CCC(=O)NC4=O)C3)CC2)CC1 (stereo partly shown)
Marked response: 50.86

Exam item: Name the reported Dmax (%) H1975 # 28 DTC value associated with the compound CCOc1cc(N2CCC(N3CCN(CCC4CCN(c5ccc6c(oc(=O)n6C6CCC(=O)NC6=O)c5F)CC4)CC3)CC2)c(CC)cc1Nc1ncc(Br)c(Nc2ccc3nc(CC)ncc3c2P(C)(C)=O)n1 (stereo not shown)
Marked response: 72.14

Exam item: # Dmax (%) H1975 # 28 DTC lookup, item CCc1cc(Nc2ncc(Br)c(Nc3ccc4nc(COC)ccc4c3P(C)(C)=O)n2)c(OC)cc1N1CCC(N2CCN(CCc3cc(F)c(C4CCC(=O)NC4=O)c(F)c3)CC2)CC1 (stereo not shown)
Marked response: 77.81

Exam item: Query (compound): CCc1ccc2c(P(C)(C)=O)c(Nc3nc(Nc4cc(CC)c(N5CCC(N6CCN(CCc7cccc8c7n(C)c(=O)n8C7CCC(=O)NC7=O)CC6)CC5)cc4OC4CC4)ncc3Br)ccc2n1 (stereo not shown) ; field requested: Dmax (%) H1975 # 28 DTC
Marked response: 79.08

Exam item: If you can, please state the reported Dmax (%) H1975 # 28 DTC value of CCc1cc(Nc2ncc(Br)c(Nc3ccc4nc(C)ncc4c3P(C)(C)=O)n2)c(OC)cc1N1CCC(N2CCN(C(=O)[C@H]3CN(c4cc(F)c([C@H]5CCC(=O)NC5=O)c(F)c4)CC3(C)C)CC2)CC1 .
Marked response: 87.27

Exam item: Report Dmax (%) H1975 # 28 DTC for CCOc1cc(N2CCC(N3CCN(C(=O)COc4cccc5c4n(C)c(=O)n5C4CCC(=O)NC4=O)CC3)CC2)c(CC)cc1Nc1ncc(Br)c(Nc2ccc3nc(CC)ccc3c2P(C)(C)=O)n1 (stereo not shown) please.
Marked response: 69.46

Exam item: State the recorded Dmax (%) H1975 # 28 DTC for this entry: CCc1ccc2c(P(C)(C)=O)c(Nc3nc(Nc4cc(CC)c(N5CCC(N6CCN(CC7CN(c8cc(F)c(C9CCC(=O)NC9=O)c(F)c8)C7)CC6)CC5)cc4OC)ncc3Br)ccc2n1 (stereo not shown)
Marked response: 72.7

Exam item: // returns reported Dmax (%) H1975 # 28 DTC for input CCOc1cc(N2CCC(N3CCN(CCc4cc(F)c(F)c5c4n(CC)c(=O)n5C4CCC(=O)NC4=O)CC3)CC2)c(CC)cc1Nc1ncc(Br)c(Nc2ccc3nc(CC)ccc3c2P(C)(C)=O)n1 (stereo not shown)
Marked response: 68.91

Exam item: Give the measured Dmax (%) H1975 # 28 DTC of CCc1cc(Nc2ncc(Br)c(Nc3ccc4nc(C)ccc4c3P(C)(C)=O)n2)c(OC)cc1N1CCC(N2CCN(CC3CN(c4ccc5c(c4)oc(=O)n5C4CCC(=O)NC4=O)C3)CC2)CC1 (stereo not shown) .
Marked response: 65.01

Exam item: Which Dmax (%) H1975 # 28 DTC is listed for CCOc1cc(N2CCC(N3CCN(CCc4cc(F)c([C@H]5CCC(=O)NC5=O)c(F)c4)CC3)CC2)c(CC)cc1Nc1ncc(Br)c(Nc2ccc3c(=O)n(C)ncc3c2P(C)(C)=O)n1 ?
Marked response: 88.96

Exam item: Which Dmax (%) H1975 # 28 DTC reading was recorded for the compound CCOc1cc(N2CCC(N3CCN(CCCCc4cc(F)cc5c4oc(=O)n5C4CCC(=O)NC4=O)CC3)CC2)c(CC)cc1Nc1ncc(Br)c(Nc2ccc3nc(CC)ccc3c2P(C)(C)=O)n1 (stereo not shown) ?
Marked response: 81.77

Exam item: Dmax (%) H1975 # 28 DTC lookup needed for CCOc1cc(N2CCC(N3CCN(C(=O)[C@H]4CN(c5cc(F)c([C@H]6CCC(=O)NC6=O)c(F)c5)CC4(C)C)CC3)CC2)c(CC)cc1Nc1ncc(Br)c(Nc2cc(F)c3nc(CC)ccc3c2P(C)(C)=O)n1 , thanks.
Marked response: 77.61
